B1: Max-interacting protein 1, residues 70 to 120; numbered along this chain, P50539 (parent)
chain: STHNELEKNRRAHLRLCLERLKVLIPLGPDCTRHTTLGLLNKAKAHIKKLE

variants of: B1; experiment: abundance fitness (aPCA) (normalised: wild type 0, dead -1); higher = more abundant; growth selection in yeast, the domain comes from the species named; settings: Homo sapiens
readout.type: abundance fitness
Quick one: just the number, no unit, thanks!

// known answers, use as guide
P29V
0.401
A12F
-0.826
L50W
0.023

stdin: Form field: reported abundance fitness of T32C
stdout: 0.268

stdin: // next record L37G
stdout: -0.107

stdin: // next record K42P
stdout: -0.808

stdin: // next record G38V
stdout: -0.242

stdin: // next record L39R
stdout: -0.879

stdin: // next record T2H
stdout: -0.1

stdin: // next record L6H
stdout: 0.519
